Recorded values, source PubChem BioAssay.

- ASSAY METHOD TEXT: viability gain of MRP-1-high H69AR cells under doxorubicin, pilot screen, MRP-1 activator project, CellTiter-Glo, duplicate (AID 807);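 note: compound pretreatment 18-22 h then 72 h combined with doxorubicin; 0% = doxorubicin alone and 100% = vehicle without doxorubicin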
- CONDITION DETAILS: H69AR viability with doxorubicin, CellTiter-Glo luminescence; at 10 µM; active compounds read high
Some compounds, each annotated with its measured viability increase.
Give the value in % but do not write % after it.

Field: example entries. Status: answers known.
>>> df
                            molecule_smiles  meas_value
0           CCOC(=O)c1sc(NC(=O)c2ccco2)nc1C       -1.31
1  COc1cc(C2N(c3ccccc3)CCN2c2ccccc2)ccc1OC(C)=O        0.59
2          COc1nc(Nc2ccc3c(c2)OCO3)nc(OC)n1        -2.8

Ask: I'd like to know its viability increase. The compound in question is COc1ccc(C(=O)c2cn[nH]c2-c2cc(Cl)ccc2O)cc1
Result: -1.77

Ask: And the next one, COc1cc(NC(=O)c2c(-c3ccccc3Cl)noc2C)c2ncccc2c1 ?
Result: -0.47

====

Entries and their inhibition values follow.
- ASSAY METHOD TEXT: inhibitors of the yeast RAM network, pilot screen, dse1pr::URA3 reporter, 5-FOA selection (AID 869);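 note: 0% = DMSO wells with no growth and 100% = 10 µM 1-NA-PP1 with full growth; RAM network block rescues cells from 5-FOA so hits raise OD615 growth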
- CONDITION DETAILS: S. cerevisiae dse1pr::URA3 5-FOA growth, OD615, 2 d; at 10 µM; active compounds read high; strain carries analog-sensitive mutant Cbk1 kinase
Dear colleague, please return just the value in %, with no unit written.

Take a look at these entries with their results.
In [3]: df
Out[3]:
                                   molecule  meas_value
0  Cc1c(-n2cc(C(=O)O)c(=O)c3cc(F)c(N4CCCC4)c(F)c32)c(=O)n(-c2ccccc2)n1C         2.6
1  COc1cccc(C2c3c(oc4cc(C)c(C)cc4c3=O)C(=O)N2CCCN(C)C)c1 (centres undefined)       0.885
2  Cc1onc(-c2ccccc2)c1C(=O)Nc1sc2c(c1C#N)CCC2        1.58
3           O=C(C1CC1)N1CCCN(C(=O)C2CC2)CC1        2.03
4  COc1cccc(C(=O)Nc2ccc(S(=O)(=O)Nc3onc(C)c3C)cc2)c1        1.99
5  O=C(Cn1cc2c(n1)CCCC2)NCCCN1CCN(Cc2ccccc2)CC1        0.61

Turning now to a further record.
Ask: Looking for the measured inhibition of Cc1cc(OCC(=O)C(C)(C)C)c2c(C)c(C)c(=O)oc2c1 , can you help?
Result: 0.31

====

- ASSAY METHOD TEXT: viability gain of MRP-1-high H69AR cells under doxorubicin, pilot screen, MRP-1 activator project, CellTiter-Glo, duplicate (AID 807);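 note: compound pretreatment 18-22 h then 72 h combined with doxorubicin; 0% = doxorubicin alone and 100% = vehicle without doxorubicin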
- CONDITION DETAILS: H69AR viability with doxorubicin, CellTiter-Glo luminescence; at 10 µM; active compounds read high
METRIC NAME: viability increase (%)
Reply numerically in %, unit not repeated.

Here are 10 molecules together with their reported answers.
In [3]: df
Out[3]:
                                   molecule         metric_name  meas_value
0  COc1ccccc1CNS(=O)(=O)c1ccc2c(c1)oc(=O)n2C  viability increase       -0.99
1  COc1cccc(N2C(=O)C3ON(c4ccccc4)C(c4cccs4)C3C2=O)c1 (configuration not stated)  viability increase       -0.83
2  COc1ccccc1N1CSC2=C(C#N)C(c3ccc(SC)cc3)CC(=O)N2C1 (configuration not stated)  viability increase       -5.15
3  COc1ccc(CCNC(=O)CN(c2ccccc2OC)S(C)(=O)=O)cc1OC  viability increase        -1.9
4  O=C(CCN1CCN(c2ccccc2)CC1)Nc1ccc2c(c1)OCO2  viability increase       -4.06
5           NC(=O)c1cc(Cl)cn(-c2ccccc2)c1=O  viability increase       -0.12
6  CCCC(=O)N(Cc1cc2cc(C)ccc2[nH]c1=O)c1ccccc1OC  viability increase       -0.05
7  CN1C(=O)/C(=C2\SC(=S)N(C(CCC(=O)O)C(=O)O)C2=O)c2ccccc21 (configuration not stated)  viability increase       -2.67
8         O=C(CN1CCOc2ccccc21)NCc1ccc(F)cc1  viability increase       -5.89
9    Cc1onc(-c2ccccc2Cl)c1C(=O)N(C)C1CCCCC1  viability increase       -2.42

Ask: Fill in: viability increase of O=C(Nc1ccc2c(c1)OCO2)C(c1ccccc1)N1CCCCC1 (configuration not stated) is ___
Result: -1.69

Ask: Entry to check: CCCc1ccc2c(N)c(C#N)sc2n1
Result: 0.61

Ask: Param item: O=C(CN1CCOCC1)Nc1cc(Cl)ccc1Cl
Result: -2.37

Ask: // same read-out, input: COc1ccc(N=CC2=C(O)CC(C)(C)CC2=O)cc1
Result: -3.24

Ask: What would you report for O=C(c1oc(=O)c2ccccc2c1-c1ccccc1)N1CCN(C2CCCCC2)CC1 ?
Result: -1.86

Ask: Same read-out for C=CCn1c(SCc2ccc(F)cc2)nc2c1c(=O)[nH]c(=O)n2C ?
Result: -2.64

Ask: Now give it for O=C(CSc1cn(CCNC(=O)c2ccccc2)c2ccccc12)NCc1ccco1 too.
Result: -5.29

Ask: And what about the molecule CCOc1ccc2nc(N3CCC(C(=O)N4CCN(C(=O)c5ccco5)CC4)CC3)sc2c1 ?
Result: -4.93

Ask: Note, next up: CC(=O)N1CC2(C)CN(C(C)=O)CC(C)(C1)C2=O
Result: -0.26

Ask: Also need Cc1cccc(Cn2c(CN3CCN(Cc4ccccc4)CC3)nc3c2c(=O)[nH]c(=O)n3C)c1 , thanks.
Result: -3.25

Ask: Try this molecule too: COc1ccc(Cl)cc1S(=O)(=O)N1CCN(C)CC1
Result: -2.26

====

Below, each entry is listed with its recorded growth inhibition.
- ASSAY METHOD TEXT: Restrictive medium S. cerevisiae growth inhibition, OD615, pilot screen of yeast lifespan reduction project, restrictive growth control (AID 706);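 note: modified DeaD lifespan yeast strain shifted to restrictive glucose medium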
- CONDITION DETAILS: OD615, 48 h, at 10 µM, active compounds read high
The source made the active and inactive calls.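 Rule for the calls: active = growth inhibition above a set limit, 3 SD over mean compound inhibition, in both replicates (cut at about 43% in these data); inconclusive = above the limit in only one replicate; inactive = at or below the limit in both replicates.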

>>> df
                            molecule_smiles        metric_name         meas_value
0  Cc1cc(C)c2c(=O)[nH]c(SCC(=O)N3CCCCC3)nc2n1  growth inhibition  -6.02% (inactive)
1                  O=C(Nc1nccs1)c1ccc(Cl)s1  growth inhibition   4.79% (inactive)
2  Cc1ccc(C)c2[nH]c(=O)c(CCNC(=O)CC(C)C)cc12  growth inhibition  -10.7% (inactive)

Ask: Would you kindly share the measured growth inhibition for COc1ccccc1C(=O)N1CCN(c2cccc(Cl)c2)CC1 ?
Result: -12.8% (inactive)

====

- ASSAY METHOD TEXT: growth suppression of PTEN-deleted HCT116, pilot screen, cell-based, HCT116 clonal line, CellTiter-Glo (AID 824);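 note: 0% = 20 µM Hyamine control and 100% = vehicle cell control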
- CONDITION DETAILS: 60 h, at 10 µM, active compounds read low
Results filed as inconclusive are left out.
METRIC NAME: viability (%)
# value in %; strip the unit string

>>> print(df.to_string())
                                   compound  unit_of_measure  meas_value
0  C=CCSc1nnc(CSc2nc3sc4c(c3c(=O)[nH]2)CCCC4)n1-c1ccccc1                %        91.2
1  CCOc1ccc(C2N(c3ccc(Cl)cc3)C(=O)C3CCCN32)cc1OC (stereo not drawn)                %        95.8

Ask: Given the compound COc1cc(C2C3=C(CC(c4ccco4)CC3=O)Nc3ccccc3N2C(C)=O)cc(OC)c1OC (stereo not drawn) , what is its reported viability?
Result: 89

Ask: Now the same for CCOC(=O)c1nnn(-c2nonc2N)c1CN(C)Cc1ccccc1
Result: 88.1

Ask: Please answer likewise for COCCOC(=O)C1=C(C)NC(=O)NC1C1CC=CCC1 (stereo not drawn)
Result: 101

Ask: Cool, now COC(=O)C1(C)Nc2ccccc2C(=O)N1c1ccccc1OC (stereo not drawn)
Result: 88.5

Ask: Cool, now CC1CCCN(Cc2nc3c(c(=O)n(C)c(=O)n3C)n2Cc2c(F)cccc2Cl)C1 (stereo not drawn)
Result: 80.2

Ask: Next entry: Cc1ccc2cc(CCNC(=O)C3CCCC3)c(=O)[nH]c2c1
Result: 98.2

Ask: Same read-out for C=CCN1C(=O)C2C(C(=O)NC)C3(C)C=CC2(O3)C1C(=O)NCc1ccc(OC)cc1 (stereo not drawn) ?
Result: 99.9

Ask: Repeat with CC(C)CCN(C)C1CCN(C(=O)Nc2c(F)cccc2F)CC1
Result: 91.7

Ask: What about this compound? CCc1c(C(C)O)oc2ccc3c(C)cc(=O)oc3c12 (stereo not drawn)
Result: 82.2

Ask: For Cc1noc(NS(=O)(=O)c2ccc(NC(=O)CSc3nc4c(cc3C#N)CCC4)cc2)c1C then?
Result: 98.3

Ask: Query Cc1ccc2oc(=O)c3cc(C(=O)NCc4ccco4)sc3c2c1 next
Result: 96.6

Ask: Ok, now CCn1cc(SCC(N)=O)c2ccccc21
Result: 92.3

Ask: Another compound: Cc1ccc(C)c2[nH]c(=O)c(CCNC(=O)CC(C)C)cc12
Result: 108

Ask: Next compound: Cc1nn(C)c(C)c1S(=O)(=O)N(CC(=O)NCc1ccco1)c1ccc(C(C)C)cc1
Result: 97.3

Ask: Ok, now O=C1CCc2cc(S(=O)(=O)NC(Cc3ccccc3)C(=O)NCC3CCCO3)ccc2N1 (stereo not drawn)
Result: 92.8
